# System: green foxtail (Se)
# METHOD DESCRIPTION: Test Example 2: herbicidal effects by upland soil treatment;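 further: 0-5 growth inhibition grade; 5 = over 90%; 4 = 70-90%; 3 = 50-70%; 2 = 30-50%; 1 = 10-30%; 0 = under 10%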
# Format: in vivo
# CONDITION LABEL: dose 100 g active ingredient per 10 ares, examined on the 21st day after treatment, standards of Table 44
Exercise: state measured herbicidal effects, Se (green foxtail) for each of the compounds provided.

Q: What value of herbicidal effects, Se (green foxtail) has been reported for the following compound? Cc1ncncc1C(C(C)C)N(C)C(=O)Cc1ccc(Cl)cc1 (racemic)
Result: 5

Q: Please report the recorded herbicidal effects, Se (green foxtail) for CC(C)C(c1cncnc1C(F)F)N(C)C(=O)Cc1ccccc1 (racemic) .
Result: 5

Q: Requested read-out: herbicidal effects, Se (green foxtail). Entry: CC(C)C(c1cncnc1C(F)(F)F)N(C)C(=O)OCc1ccccc1 (racemic)
Result: 5

Q: Fill in: herbicidal effects, Se (green foxtail) of C#CCN(C(=O)Cc1ccc(Cl)cc1)C(c1cncnc1C(F)(F)F)C(C)C (racemic) is ___
Result: 5

Q: Entry CC(C)C(c1cncnc1C(F)(F)F)N(C)C(=O)Cc1ccc(Cl)cc1 (racemic) has what herbicidal effects, Se (green foxtail)?
Result: 5

Q: Consider the compound shown here: Cc1cc(CC(=O)N(C)C(c2cncnc2C(F)(F)F)C(C)C)ccc1Cl (racemic) What is its recorded herbicidal effects, Se (green foxtail)?
Result: 4

Q: Would you mind telling me what herbicidal effects, Se (green foxtail) value was observed for CCCC(c1cncnc1C(F)(F)F)N(C)C(=O)Cc1ccc(C)cc1 (racemic) ?
Result: 4

Q: Entry under review: CC(C)C(c1cncnc1C(F)(F)F)N(C)C(=O)Oc1ccc(F)cc1 (racemic) . Reported herbicidal effects, Se (green foxtail)?
Result: 4

Q: # get_value(readout='herbicidal effects, Se (green foxtail)', item= Cc1ccc(CC(=O)N(C)C(c2cncnc2C)C(C)(C)C)cc1 (racemic) )
Result: 4

Q: What value of herbicidal effects, Se (green foxtail) has been reported for the following compound? COCc1ccc(CC(=O)N(C)C(c2cncnc2C(F)(F)F)C(C)C)cc1 (racemic)
Result: 5

Q: Can you look up the measured herbicidal effects, Se (green foxtail) of Cc1ncncc1C(N(C)C(=O)Cc1ccc(Cl)cc1)C(C)(C)C (racemic) for me?
Result: 5

Q: What does the data say about its herbicidal effects, Se (green foxtail)? Entry: Cc1cccc(CC(=O)N(C)C(c2cncnc2C(F)(F)F)C(C)C)c1 (racemic)
Result: 5

Q: Request the reported herbicidal effects, Se (green foxtail) associated with C#CCN(C(=O)Cc1ccccc1)C(c1cncnc1C(F)(F)F)C(C)C (racemic)
Result: 5

###

# Tested on: rice (Or)
# METHOD DESCRIPTION: Test Example 4: selectivity for a crop plant by flooded paddy field treatment
# Format: in vivo
# Parameters: scale not given here
# CONDITION LABEL: rice transplanted at second leaf stage, dose 25 g active ingredient per 10 ares, examined on the 21st day after treatment
OUTCOME MEASURE: Or (effect on crop plant rice, index)

Q: What value of Or (effect on crop plant rice, index) has been reported for the following compound? Cc1cccc(CC(=O)N(C)C(c2cncnc2C(F)(F)F)C(C)C)c1 (racemic)
Result: 1

Q: Entry under review: CC(C)C(c1cncnc1C(F)(F)F)N(C(=O)Cc1ccc(Cl)cc1)C1CC1 (racemic) . Reported Or (effect on crop plant rice, index)?
Result: 0

Q: Fill blank: measured Or (effect on crop plant rice, index) of the compound CC(C)C(c1cncnc1C(F)(F)F)N(C)C(=O)Cc1ccccc1Cl (racemic) is ____.
Result: 1

Q: Form field: reported Or (effect on crop plant rice, index) of CC(C)C(c1cncnc1C(F)(F)F)N(C)C(=O)Cc1ccc([N+](=O)[O-])cc1 (racemic)
Result: 1

Q: Entry CC(C)C(c1cncnc1C(F)(F)F)N(C)C(=O)C=Cc1ccc(Cl)cc1 (racemic) has what Or (effect on crop plant rice, index)?
Result: 0

Q: Quick check: Or (effect on crop plant rice, index) of COc1ccc(SC(=O)N(C)C(c2cncnc2C(F)(F)Cl)C(C)C)cc1 (racemic) ?
Result: 1

Q: For CCc1ccc(CC(=O)N(C)C(c2cncnc2C(F)(F)F)C(C)C)cc1 (racemic) , what is its reported Or (effect on crop plant rice, index)?
Result: 1

Q: What does the data say about its Or (effect on crop plant rice, index)? Entry: CCOc1ccc(CC(=O)N(C)C(c2cncnc2C(F)(F)F)C(C)C)cc1 (racemic)
Result: 1

Q: Return reported Or (effect on crop plant rice, index); argument: CC(C)Oc1ccc(CC(=O)N(C)C(c2cncnc2C(F)(F)F)C(C)C)cc1 (racemic)
Result: 0

Q: Tell me the measured Or (effect on crop plant rice, index) of Cc1ccc(CC(=O)N(C)C(c2cncnc2C(F)(F)F)C(C)C)cc1 (racemic) , please.
Result: 1

Q: Which Or (effect on crop plant rice, index) is listed for Cc1ccc(CC(=O)N(C)C(c2cncnc2C(F)(F)F)C(C)C)cc1C (racemic) ?
Result: 0

Q: What value of Or (effect on crop plant rice, index) has been reported for the following compound? CC(C)C(c1cncnc1C1CC1)N(C)C(=O)Cc1ccc(Cl)cc1 (racemic)
Result: 1

Q: Recorded Or (effect on crop plant rice, index) of CC(C)C(c1cncnc1C(F)(F)F)N(C)C(=O)C=Cc1ccccc1 (racemic) , please.
Result: 0

Q: What does the record list as Or (effect on crop plant rice, index) for CC(C)C(c1cncnc1C(F)(F)F)N(C)C(=O)Cc1cccc([N+](=O)[O-])c1 (racemic) ?
Result: 0

Q: Name the recorded Or (effect on crop plant rice, index) for CCCN(C(=O)Cc1ccccc1)C(c1cncnc1C(F)(F)F)C(C)C (racemic) .
Result: 1

Q: Consider the compound shown here: CCCN(C(=O)Cc1ccc(Cl)cc1)C(c1cncnc1C(F)(F)F)C(C)C (racemic) What is its recorded Or (effect on crop plant rice, index)?
Result: 0

Q: What does the record list as Or (effect on crop plant rice, index) for Cc1ccc(CC(=O)N(C)C(c2cncnc2C(F)(F)F)C(C)(C)C)cc1 (racemic) ?
Result: 1

Q: Returns the measured Or (effect on crop plant rice, index) for the input compound. Input: COc1cc(CC(=O)N(C)C(c2cncnc2C(F)(F)F)C(C)C)ccc1Cl (racemic)
Result: 0

Q: // lookup Or (effect on crop plant rice, index) for CC(C)C(c1cncnc1C(F)(F)Cl)N(C)C(=O)Sc1ccccc1 (racemic)
Result: 1
